test-system: Prostaglandin E2 receptor EP1 subtype (Homo sapiens, UniProt P34995)
Sequence (P34995 whole entry): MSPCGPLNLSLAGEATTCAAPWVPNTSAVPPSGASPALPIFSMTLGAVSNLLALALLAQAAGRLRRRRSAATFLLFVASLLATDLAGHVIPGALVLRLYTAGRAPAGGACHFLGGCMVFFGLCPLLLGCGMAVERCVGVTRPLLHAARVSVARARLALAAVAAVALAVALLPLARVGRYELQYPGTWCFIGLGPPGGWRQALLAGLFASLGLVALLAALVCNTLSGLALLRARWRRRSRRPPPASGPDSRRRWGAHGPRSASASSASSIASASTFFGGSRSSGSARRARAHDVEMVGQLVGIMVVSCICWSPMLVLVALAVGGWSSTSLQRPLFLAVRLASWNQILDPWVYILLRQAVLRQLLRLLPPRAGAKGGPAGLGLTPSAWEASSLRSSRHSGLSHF
test-name: Antagonist activity at human EP1 receptor assessed as inhibition of PGE2-induced Ca2+ mobilization by FLIPR assay
Recorded measurements of IC50, one per entry

• O=C(O)Cn1c2c(c3ccccc31)CN(C(=O)c1ccccc1)CC2 = > 10 µM

We now examine a further compound.
Ask | Report IC50, nothing else, for this compound: N#C/C(=C\c1cn(CC(=O)O)c2ccccc12)C(=O)N1CCCc2ccccc21
Reply | > 10 µM

----------
test-system: Prostaglandin D2 receptor 2 (Homo sapiens, UniProt Q9Y5Y4)
Sequence (Q9Y5Y4 whole entry): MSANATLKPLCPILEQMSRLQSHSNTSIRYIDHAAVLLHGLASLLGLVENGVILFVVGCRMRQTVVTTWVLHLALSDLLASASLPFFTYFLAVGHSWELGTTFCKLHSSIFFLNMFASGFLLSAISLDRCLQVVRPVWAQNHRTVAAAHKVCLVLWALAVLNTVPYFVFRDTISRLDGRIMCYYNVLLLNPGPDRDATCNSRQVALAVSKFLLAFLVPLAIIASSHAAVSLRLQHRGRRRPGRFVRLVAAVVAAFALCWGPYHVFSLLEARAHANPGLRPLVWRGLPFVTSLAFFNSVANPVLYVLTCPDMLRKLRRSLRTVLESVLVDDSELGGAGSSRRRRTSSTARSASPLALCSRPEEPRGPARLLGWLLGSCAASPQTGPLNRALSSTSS
test-name: Displacement of [3H]PGD2 from human CRTh2 receptor
pIC50: −log10 of the molar value.
endpoint: pIC50

Below, each entry is followed by its recorded pIC50 result.
- CN(C(=O)/C(C#N)=C/c1cn(CC(=O)O)c2cc(F)ccc12)c1ccccc1: 7.35
- N#C/C(=C\c1cn(CCC(=O)O)c2ccccc12)C(=O)Nc1ccccc1: 5.23
- CN(C(=O)/C(C#N)=C/c1cn(CC(=O)O)c2cccc(F)c12)c1ccccc1: 8.00
- CCCCN(C(=O)/C(C#N)=C/c1cn(CC(=O)O)c2ccccc12)c1ccccc1: 7.70
- CN(C(=O)/C(C#N)=C/c1cn(CC(=O)O)c2ccc(Cl)cc12)c1ccccc1: 8.15
- N#C/C(=C\c1cn(CCCC(=O)O)c2ccccc12)C(=O)Nc1ccccc1: 5.59
- N#C/C(=C\c1cn(CC(=O)O)c2ccccc12)C(=O)N(c1ccccc1)C1CCCCC1: 7.52

I. N#C/C(=C\c1cn(CC(=O)O)c2ccccc12)C(=O)Nc1cccc(Br)c1
II. CCCCCC(=O)N1CCc2c(c3ccccc3n2CC(=O)O)C1
Ask | // compare: I vs II , metric pIC50, want the smaller Answer = label.
Reply | I
(I: 6.30, II: 6.68)

Values from ChEMBL document CHEMBL2390869
